Cited source for all entries: ChEMBL document CHEMBL4325921

experiment_description: Plasma concentration in human MPO transgenic mouse model of PMA-induced acute inflammation at 10 mg/kg, po
Assay type: ADME, organism-based
setup_conditions: in vivo
endpoint_name: concentration (µM)
# output: bare number, implied unit µM

Exercise: Provide only the value of recorded concentration for Nc1cc(SCc2ccccc2F)c2nn[nH]c2n1
Solution: 21

###

experiment_description: Plasma concentration in human MPO transgenic mouse model of PMA-induced acute inflammation at 30 mg/kg, po
Type: ADME, organism-based
setup_conditions: in vivo
endpoint_name: concentration (µM)
# output: bare number, implied unit µM

Exercise: Provide only the value of recorded concentration for Nc1cc(SCc2ccccc2F)c2nn[nH]c2n1
Solution: 70
